Provide the reported LC50 of each item.
system: Spodoptera littoralis; experiment: Insecticidal activity against Spodoptera littoralis larvae assessed as survival rat after 5 days; format: functional

Worked examples, 3 compounds total:
COc1ccc(C2C(=O)Oc3cc4c(c(OC)c32)OCO4)cc1 (centres undefined) : >100 µg/g
CC(C)(O)C(=O)NC1CCCN1C(=O)/C=C/c1ccccc1 (centres undefined) : >250 µg/g
CC(=O)N(CCCCNC(=O)/C=C/c1ccccc1)C(=O)CCc1ccccc1 [EDULIMIDE] : >250 µg/g

# input for lookup
Ask | What measured LC50 is associated with COc1cc(C[C@H]2CO[C@H](c3ccc(O)c(OC)c3)[C@H]2COC(C)=O)ccc1O [LARICIRESINOL ACETATE] on Spodoptera littoralis?
Reply | >250 µg/g
